Cited source for all entries: ChEMBL document CHEMBL2176962

- subject of test: Proto-oncogene tyrosine-protein kinase Src (Homo sapiens) (UniProt P12931)
- Sequence (P12931 2-536 limits assumed): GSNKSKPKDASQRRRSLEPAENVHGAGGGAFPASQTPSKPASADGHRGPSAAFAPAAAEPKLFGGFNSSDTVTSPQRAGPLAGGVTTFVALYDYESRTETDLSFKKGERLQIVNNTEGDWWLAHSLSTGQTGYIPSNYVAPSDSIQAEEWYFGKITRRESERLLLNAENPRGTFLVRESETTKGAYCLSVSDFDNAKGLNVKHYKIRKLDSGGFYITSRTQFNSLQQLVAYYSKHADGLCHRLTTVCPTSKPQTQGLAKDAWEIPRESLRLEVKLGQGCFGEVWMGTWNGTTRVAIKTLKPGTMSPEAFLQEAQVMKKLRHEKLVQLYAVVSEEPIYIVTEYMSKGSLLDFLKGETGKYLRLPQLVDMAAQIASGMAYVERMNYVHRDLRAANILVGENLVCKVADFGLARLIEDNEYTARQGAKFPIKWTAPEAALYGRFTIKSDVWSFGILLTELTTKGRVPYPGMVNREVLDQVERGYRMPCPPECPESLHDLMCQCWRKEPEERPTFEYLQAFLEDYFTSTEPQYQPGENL
- test description: Inhibition of SRC at 10 uM incubated for 60 mins using poly(Glu,Tyr)4:1 substrate and 10 uM ATP by ELISA
Catalogue of molecules with associated inhibition
property label: inhibition (%)

>  <cpd smiles>
Nc1ccc(Nc2c(C(=O)NCc3ccc(F)cc3)nc(Br)c3cccnc23)cc1

>  <property label>
inhibition

>  <unit spec>
%

>  <value observed>
7

$$$$
>  <cpd smiles>
N[C@H]1CC[C@H](Nc2c(C(=O)NCc3ccc(F)cc3)nc(Br)c3cccnc23)CC1

>  <property label>
inhibition

>  <unit spec>
%

>  <value observed>
13

$$$$
>  <cpd smiles>
O=C(NCc1ccc(F)cc1)c1nc(Br)c2cccnc2c1N1CCNCC1

>  <property label>
inhibition

>  <unit spec>
%

>  <value observed>
29

$$$$
>  <cpd smiles>
NCCCNc1c(C(=O)NCc2ccc(F)cc2)ncc2cccnc12

>  <property label>
inhibition

>  <unit spec>
%

>  <value observed>
15

$$$$
